Target: AKT2 (Homo sapiens, UniProt P31751)
Sequence (P31751 whole entry): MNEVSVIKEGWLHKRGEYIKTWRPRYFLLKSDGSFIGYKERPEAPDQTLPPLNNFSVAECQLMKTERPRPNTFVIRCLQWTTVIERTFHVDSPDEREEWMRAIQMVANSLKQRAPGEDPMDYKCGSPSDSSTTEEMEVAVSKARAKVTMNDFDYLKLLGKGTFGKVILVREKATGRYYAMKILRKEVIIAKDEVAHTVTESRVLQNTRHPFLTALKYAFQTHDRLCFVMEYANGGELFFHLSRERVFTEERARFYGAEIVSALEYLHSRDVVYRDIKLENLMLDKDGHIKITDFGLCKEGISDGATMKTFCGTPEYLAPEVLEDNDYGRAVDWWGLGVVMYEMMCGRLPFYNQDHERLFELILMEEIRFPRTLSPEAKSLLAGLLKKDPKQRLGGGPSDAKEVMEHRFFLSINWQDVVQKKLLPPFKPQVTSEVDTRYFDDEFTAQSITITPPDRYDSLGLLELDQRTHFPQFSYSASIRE
Assay: Live cell target engagement by NanoBRET competitive probe displacement, AKT2
Details: transfected HEK293 cells, 2 h at 37° C., read-out: AKT2 IC50: GeoMean IC50
Protocol: Determining live cell AKT1 E17K, AKT1 WT, and AKT2 target engagement by NanoBRET competitive probe displacement. Live cell target engagement assays were performed as described (Vasta, J. D. et al. Cell Chem Biol 2018, 25(11), 206-214). […] After incubation for 2 h at 37° C., luciferase substrate and extracellular luciferase inhibitor were added to all wells, and luminescent intensity at 460 nm and 600 nm were measured on a multimode plate-reader. […]
PARAMETER MEASURED: IC50

Recorded IC50 for Cc1cc(C)c2nc(-c3cccnc3N)n(-c3ccc4c(c3)CC[C@@H]4NC(=O)c3ccc(O)c(C=O)c3)c2n1 [Example 69] , please?
≥ 2 µM

Recorded IC50 for Nc1ncccc1-c1nc2ccc(-c3cnn(C4CC4)c3)nc2n1-c1ccc2c(c1)CC[C@@H]2NC(=O)c1ccc(O)c(C=O)c1 [Example 62] , please?
0.1 to 2 µM

Recorded IC50 for Nc1ncccc1-c1nc2c(F)cc(-n3cccn3)nc2n1-c1ccc2c(c1)CC[C@@H]2NC(=O)c1ccc(O)c(C=O)c1 [Example 213] , please?
0.1 to 2 µM

Recorded IC50 for Nc1ncccc1-c1nc2c(C3CC3)cc(-n3cccn3)nc2n1-c1ccc2c(c1)CC[C@@H]2NC(=O)c1ccc(O)c(C=O)c1 [Example 230] , please?
0.1 to 2 µM

Recorded IC50 for Nc1ncccc1-c1nc2ccc(-c3cccnc3)nc2n1-c1ccc2c(c1)CC[C@@H]2NC(=O)c1ccc(O)c(C=O)c1 [Example 23] , please?
0.1 to 2 µM

Recorded IC50 for Nc1ncccc1-c1nc2ccc(-n3cc(C=O)cn3)nc2n1-c1ccc2c(c1)CC[C@@H]2NC(=O)c1ccc(O)c(C=O)c1 [Example 84] , please?
0.1 to 2 µM

Recorded IC50 for CN(C)c1ccn(-c2ccc3nc(-c4cccnc4N)n(-c4ccc5c(c4)CC[C@@H]5NC(=O)c4ccc(O)c(C=O)c4)c3n2)n1 [Example 114] , please?
0.1 to 2 µM

Recorded IC50 for Cc1ccc(-c2nc3ccc(-n4cccn4)nc3n2-c2ccc3c(c2)CC[C@@H]3NC(=O)c2ccc(O)c(C=O)c2)c(N)n1 [Example 166] , please?
≥ 2 µM

Recorded IC50 for CS(=O)(=O)Nc1cc(-n2cccn2)nc2c1nc(-c1cccnc1N)n2-c1ccc2c(c1)CC[C@@H]2NC(=O)c1ccc(O)c(C=O)c1 [Example 232] , please?
≥ 2 µM

Recorded IC50 for CC(=O)c1cc(C(=O)N[C@H]2CCc3cc(-n4c(-c5cccnc5N)nc5ccc(-n6cccn6)nc54)ccc32)cc(C=O)c1O [Example 102] , please?
0.01 to 0.1 µM

Recorded IC50 for Nc1ncccc1-c1nc2ccc(-n3cccn3)nc2n1-c1ccc2c(c1)CC[C@@H]2NC(=O)c1csc(C=O)n1 [Example 143] , please?
0.1 to 2 µM

Recorded IC50 for Nc1ncccc1-c1nc2ccc(-c3cnccn3)nc2n1-c1ccc2c(c1)CC[C@@H]2NC(=O)c1cc(C=O)c(O)c(F)c1F [Example 103] , please?
0.1 to 2 µM

Recorded IC50 for Nc1ncccc1-c1nc2ccc(-c3ccccc3)nc2n1-c1ccc2c(c1)CC[C@@H]2NC(=O)c1cc(C=O)c(O)cn1 [Example 40] , please?
≥ 2 µM

Recorded IC50 for Nc1ncccc1-c1nc2ccc(-c3ccccc3)nc2n1-c1ccc2c(c1)CCC2NC(=O)Cc1ccc(C=O)c(O)c1 (centres unmarked) [Example 6] , please?
0.1 to 2 µM

Recorded IC50 for Cc1cc(-n2nccn2)nc2c1nc(-c1cccnc1N)n2-c1ccc2c(c1)CC[C@@H]2NC(=O)c1cc(C=O)c(O)c(F)c1F [Example 227] , please?
0.1 to 2 µM

Recorded IC50 for Nc1ncccc1-c1nc2ccc(-n3cncn3)nc2n1-c1ccc2c(c1)CC[C@@H]2NC(=O)c1ccc(O)c(C=O)c1 [Example 97] , please?
0.1 to 2 µM

Recorded IC50 for CC(=O)Nc1c(F)cc(C(=O)N[C@H]2CCc3cc(-n4c(-c5cccnc5N)nc5ccc(-c6ccccc6)nc54)ccc32)cc1C=O [Example 64] , please?
0.01 to 0.1 µM

Recorded IC50 for Nc1ncc(F)cc1-c1nc2ccc(-n3cccn3)nc2n1-c1ccc2c(c1)CC[C@@H]2NC(=O)c1ccc(O)c(C=O)c1 [Example 163] , please?
≥ 2 µM

Recorded IC50 for [N-]=[N+]=Nc1cc(O)c(C=O)cc1C(=O)N[C@H]1CCc2cc(-n3c(-c4cccnc4N)nc4ccc(-n5cccn5)nc43)ccc21 [Example 235] , please?
0.1 to 2 µM

Recorded IC50 for [2H]C(=O)c1cc(C(=O)N[C@H]2CCc3cc(-n4c(-c5cccnc5N)nc5c(C)cc(-n6cccn6)nc54)ccc32)ccc1O [Example 183] , please?
0.1 to 2 µM

Recorded IC50 for CC(=O)Nc1ccc(C(=O)N[C@H]2CCc3cc(-n4c(-c5cccnc5N)nc5ccc(N6CCOCC6)nc54)ccc32)cc1C=O [Example 53] , please?
0.1 to 2 µM

Recorded IC50 for Cc1noc(-c2ccc3nc(-c4cccnc4N)n(-c4ccc5c(c4)CC[C@@H]5NC(=O)c4ccc(O)c(C=O)c4)c3n2)n1 [Example 179] , please?
0.1 to 2 µM

Recorded IC50 for Nc1ncccc1-c1nc2ccc(-c3ccn(C(F)F)n3)nc2n1-c1ccc2c(c1)CC[C@@H]2NC(=O)c1cc(C=O)c(O)c(F)c1F [Example 157] , please?
0.01 to 0.1 µM

Recorded IC50 for Nc1ncccc1-c1nc2ccc(-c3ccccc3)nc2n1-c1ccc2c(c1)CC[C@@H]2NC(=O)Cc1ccc(C=O)c(O)c1Cl [Example 9] , please?
0.1 to 2 µM

Recorded IC50 for Nc1ncccc1-c1nc2ccc(-n3cc(Cl)cn3)nc2n1-c1ccc2c(c1)CC[C@@H]2NC(=O)c1ccc(O)c(C=O)c1 [Example 78] , please?
0.1 to 2 µM

Recorded IC50 for Nc1ncccc1-c1nc2c(-n3cccn3)cc(-n3cccn3)nc2n1-c1ccc2c(c1)CC[C@@H]2NC(=O)c1ccc(O)c(C=O)c1 [Example 198] , please?
0.1 to 2 µM

====

molecular target: AKT1 E17K (Homo sapiens, UniProt P31749, E17K); test: Live cell target engagement by NanoBRET competitive probe displacement, AKT1 E17K; settings: transfected HEK293 cells, 2 h at 37° C., read-out: AKT1 E17K IC50: GeoMean IC50
Sequence (P31749 whole entry E17K): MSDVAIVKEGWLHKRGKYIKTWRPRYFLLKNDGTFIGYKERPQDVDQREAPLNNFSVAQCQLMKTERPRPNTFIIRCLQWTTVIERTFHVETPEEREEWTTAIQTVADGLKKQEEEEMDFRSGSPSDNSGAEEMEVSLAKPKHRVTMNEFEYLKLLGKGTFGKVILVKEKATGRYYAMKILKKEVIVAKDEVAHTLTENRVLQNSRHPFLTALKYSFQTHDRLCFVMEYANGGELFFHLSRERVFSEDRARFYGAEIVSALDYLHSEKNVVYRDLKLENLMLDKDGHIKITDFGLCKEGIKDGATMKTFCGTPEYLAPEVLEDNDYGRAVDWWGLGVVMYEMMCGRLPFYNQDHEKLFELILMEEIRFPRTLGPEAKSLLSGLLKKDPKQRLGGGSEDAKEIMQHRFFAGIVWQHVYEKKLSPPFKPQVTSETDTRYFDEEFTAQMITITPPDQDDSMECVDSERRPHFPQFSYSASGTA
pIC50: −log10 of the molar value.
PARAMETER MEASURED: pIC50

Recorded pIC50 for Nc1ncccc1-c1nc2ccc(-c3cnn(C4CC4)c3)nc2n1-c1ccc2c(c1)CC[C@@H]2NC(=O)c1ccc(O)c(C=O)c1 [Example 62] , please?
7.00 to 8.00

Recorded pIC50 for Nc1ncccc1-c1nc2ccc(-c3ccccc3)nc2n1-c1ccc2c(c1)CC[C@@H]2Nc1nccc2c(C=O)c(O)ccc12 [Example 39] , please?
5.70 to 7.00

Recorded pIC50 for Nc1ncccc1-c1nc2ccc(-n3cccn3)nc2n1-c1ccc2c(c1)CC[C@@H]2NC(=O)c1cc(C=O)c(O)cc1O [Example 159] , please?
7.00 to 8.00

Recorded pIC50 for Cc1cc(-n2cccn2)nc2c1nc(-c1cccnc1N)n2-c1ccc2c(c1)CC[C@@H]2NC(=O)c1cc(C=O)c(O)cc1F [Example 202] , please?
7.00 to 8.00

Recorded pIC50 for Nc1ncccc1-c1nc2ccc(-n3cccn3)nc2n1-c1ccc2c(c1)CC[C@@H]2NC(=O)c1cc(C=O)c(O)c(C(F)(F)F)c1 [Example 100] , please?
7.00 to 8.00

Recorded pIC50 for Nc1ncccc1-c1nc2cc(O)c(-n3cccn3)nc2n1-c1ccc2c(c1)CC[C@@H]2NC(=O)c1cc(C=O)c(O)cc1F [Example 226] , please?
7.00 to 8.00

Recorded pIC50 for Nc1ncccc1-c1nc2ccc(-n3cccn3)nc2n1-c1ccc2c(c1)CC[C@@H]2NC(=O)c1cccc(C=O)c1 [Example 142] , please?
7.00 to 8.00

Recorded pIC50 for Nc1ncccc1-c1nc2ccc(-n3cccn3)nc2n1-c1ccc2c(c1)CC[C@@H]2NC(=O)c1cc(C=O)c2[nH]ncc2c1 [Example 66] , please?
> 8.00

Recorded pIC50 for Cc1noc(-c2ccc3nc(-c4cccnc4N)n(-c4ccc5c(c4)CC[C@@H]5NC(=O)c4ccc(O)c(C=O)c4)c3n2)n1 [Example 179] , please?
7.00 to 8.00

Recorded pIC50 for Nc1ncccc1-c1nc2ccc(-c3ccccc3)nc2n1-c1ccc2c(c1)CC[C@@H]2NC(=O)c1cnn2ccc(O)c(C=O)c12 [Example 54] , please?
5.70 to 7.00

Recorded pIC50 for Nc1ncccc1-c1nc2ccc(-c3ncco3)nc2n1-c1ccc2c(c1)CC[C@@H]2NC(=O)c1cc(C=O)c(O)c(F)c1F [Example 150] , please?
7.00 to 8.00

Recorded pIC50 for Nc1ncccc1-c1nc2ccc(-c3ccccc3)nc2n1-c1ccc2c(c1)CC[C@@H]2NC(=O)c1ccc(NC(=O)C2CC2)c(C=O)c1 [Example 47] , please?
7.00 to 8.00

Recorded pIC50 for Nc1ncccc1-c1nc2ccc(-n3cccn3)nc2n1-c1ccc2c(c1)CC[C@@H]2NC(=O)c1cc(Cl)c(O)c(C=O)c1 [Example 93] , please?
7.00 to 8.00
